System: E. faecalis ATCC29212
Assay: MIC, microdilution broth method (NCCLS)
Assay type: cell-based
Settings: Enterococcus faecalis, Table 2, 3,6-Dicarbamoyl Macrolide Derivatives, read-out: MIC Values, C: E. faecalis ATCC29212
Listed next: entries and their corresponding MIC.
Number in µg/mL, nothing else.

Some solved entries appear below for comparison.
structure.smiles	MIC (µg/mL)
CC[C@H]1OC(=O)[C@H](C)[C@@H](OC(=O)N(CC)CC)[C@H](C)[C@@H](O[C@@H]2O[C@H](C)C[C@H](N(C)C)[C@H]2O)[C@](C)(OC(=O)NC/C=C/c2ccc(-n3cccn3)cc2)C[C@@H](C)C(=O)[C@H](C)[C@H]2NC(=O)O[C@@]21C	0.5
CC[C@H]1OC(=O)[C@H](C)[C@@H](OC(=O)N(CC)c2cccnc2)[C@H](C)[C@@H](O[C@@H]2O[C@H](C)C[C@H](N(C)C)[C@H]2O)[C@](C)(OC(=O)NC/C=C/c2ccc(-c3ncccn3)cc2)C[C@@H](C)C(=O)[C@H](C)[C@H]2NC(=O)O[C@@]21C	1
CC[C@H]1OC(=O)[C@H](C)[C@@H](OC(=O)NC2CCCCC2)[C@H](C)[C@@H](O[C@@H]2O[C@H](C)C[C@H](N(C)C)[C@H]2O)[C@](C)(OC(=O)NC/C=C/c2ccc(-c3ncccn3)cc2)C[C@@H](C)C(=O)[C@H](C)[C@H]2NC(=O)O[C@@]21C	0.5
CC[C@H]1OC(=O)[C@H](C)[C@@H](OC(=O)N(CC)CC)[C@H](C)[C@@H](O[C@@H]2O[C@H](C)C[C@H](N(C)C)[C@H]2O)[C@](C)(OC(=O)NC/C=C/c2cnc3ccccc3c2)C[C@@H](C)C(=O)[C@H](C)[C@H]2NC(=O)O[C@@]21C	0.25

Prompt line: Can you look up the measured MIC of `CC[C@H]1OC(=O)[C@H](C)[C@@H](OC(=O)N(C)c2cccnc2)[C@H](C)[C@@H](O[C@@H]2O[C@H](C)C[C@H](N(C)C)[C@H]2O)[C@](C)(OC(=O)NC/C=C/c2ccc(-c3ncccn3)cc2)C[C@@H](C)C(=O)[C@H](C)[C@H]2NC(=O)O[C@@]21C` for me?
Response line: 0.5

Prompt line: Can you look up the measured MIC of `CC[C@H]1OC(=O)[C@H](C)[C@@H](OC(=O)N(C)C(C)C)[C@H](C)[C@@H](O[C@@H]2O[C@H](C)C[C@H](N(C)C)[C@H]2O)[C@](C)(OC(=O)NC/C=C/c2ccc(-c3ncccn3)cc2)C[C@@H](C)C(=O)[C@H](C)[C@H]2NC(=O)O[C@@]21C` for me?
Response line: 0.5

Prompt line: Can you look up the measured MIC of `CC[C@H]1OC(=O)[C@H](C)[C@@H](OC(=O)Nc2ccc(F)cc2)[C@H](C)[C@@H](O[C@@H]2O[C@H](C)C[C@H](N(C)C)[C@H]2O)[C@](C)(OC(=O)NC/C=C/c2ccc(-c3ncccn3)cc2)C[C@@H](C)C(=O)[C@H](C)[C@H]2NC(=O)O[C@@]21C` for me?
Response line: 1

Prompt line: Can you look up the measured MIC of `CC[C@H]1OC(=O)[C@H](C)[C@@H](OC(=O)N(CC)CC)[C@H](C)[C@@H](O[C@@H]2O[C@H](C)C[C@H](N(C)C)[C@H]2O)[C@](C)(OC(=O)NC/C=C/c2ccc(-c3cnccn3)cc2)C[C@@H](C)C(=O)[C@H](C)[C@H]2NC(=O)O[C@@]21C` for me?
Response line: 0.5

Prompt line: Can you look up the measured MIC of `CC[C@H]1OC(=O)[C@H](C)[C@@H](OC(=O)N(CC)CC)[C@H](C)[C@@H](O[C@@H]2O[C@H](C)C[C@H](N(C)C)[C@H]2O)[C@](C)(OC(=O)NC/C=C/c2ccc(-c3ccn(C)n3)cc2)C[C@@H](C)C(=O)[C@H](C)[C@H]2NC(=O)O[C@@]21C` for me?
Response line: 0.5
